Molecular target: UniProt:P21554
Sequence (P21554 whole entry): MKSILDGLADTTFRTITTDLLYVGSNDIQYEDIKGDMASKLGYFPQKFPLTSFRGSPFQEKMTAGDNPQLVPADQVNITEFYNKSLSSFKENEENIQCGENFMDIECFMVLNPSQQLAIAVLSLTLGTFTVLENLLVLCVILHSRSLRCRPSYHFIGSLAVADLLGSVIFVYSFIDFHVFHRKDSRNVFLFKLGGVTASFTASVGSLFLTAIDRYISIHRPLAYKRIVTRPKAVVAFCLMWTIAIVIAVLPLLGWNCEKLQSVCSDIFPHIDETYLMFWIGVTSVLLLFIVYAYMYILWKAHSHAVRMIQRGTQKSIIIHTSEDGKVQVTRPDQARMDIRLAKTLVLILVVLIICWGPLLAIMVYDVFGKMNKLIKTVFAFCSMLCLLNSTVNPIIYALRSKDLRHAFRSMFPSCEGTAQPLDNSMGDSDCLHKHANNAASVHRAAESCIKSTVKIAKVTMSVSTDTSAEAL
Experiment: Binding assay, cannabinoid CB1 receptor ([3H]-CP-55,940 displacement)
Design: expressed in transfected cells; host or cells: SK-N-MC cells, pcDNA3 CB-1 (human), semi-purified membranes
Classify: True when IC50 is strictly less than 0.009 µM; False when IC50 is not.

Answered cases to consult:
COMPOUND	TEST_TARGET	GROUP_LABEL
O=C(NN1CC2CCCC2C1)c1c2c(nn1-c1ccc(Cl)cc1Cl)/C(=C/c1ccc(F)cc1)CS(=O)(=O)C2 (stereo not shown)	UniProt:P21554	False
O=C(NN1CCCCC1)c1nn(-c2ccc(Cl)cc2Cl)c2c1CSC/C2=C\c1ccc(Br)cc1	UniProt:P21554	False
O=C(N[C@H]1c2ccccc2C[C@H]1O)c1nn(-c2ccc(Cl)cc2Cl)c2c1CS(=O)(=O)C/C2=C\c1ccc(F)cc1	UniProt:P21554	False
C[C@@H](NC(=O)c1nn(-c2ccc(Cl)cc2Cl)c2c1CS(=O)(=O)C/C2=C\c1ccc(Cl)o1)C1CCCCC1	UniProt:P21554	True
C[C@H](NC(=O)c1nn(-c2ccc(Cl)cc2Cl)c2c1CS(=O)(=O)C/C2=C\c1ccc(F)cc1)c1ccccc1	UniProt:P21554	True

As a next step, examine the compound that follows.
input: Decide: IC50 of O=C(N[C@@H]1c2ccccc2C[C@@H]1O)c1nn(-c2ccc(Cl)cc2Cl)c2c1CSC/C2=C\c1ccc(F)cc1 strictly below 0.009 µM?
output: False

Sourced from patent US7524964B2
